molecular target: Gamma-aminobutyric acid receptor subunit alpha-2 (Homo sapiens); assay: Positive allosteric modulation of GABAA alpha2 (unknown origin)
Sequence (P47869 whole entry): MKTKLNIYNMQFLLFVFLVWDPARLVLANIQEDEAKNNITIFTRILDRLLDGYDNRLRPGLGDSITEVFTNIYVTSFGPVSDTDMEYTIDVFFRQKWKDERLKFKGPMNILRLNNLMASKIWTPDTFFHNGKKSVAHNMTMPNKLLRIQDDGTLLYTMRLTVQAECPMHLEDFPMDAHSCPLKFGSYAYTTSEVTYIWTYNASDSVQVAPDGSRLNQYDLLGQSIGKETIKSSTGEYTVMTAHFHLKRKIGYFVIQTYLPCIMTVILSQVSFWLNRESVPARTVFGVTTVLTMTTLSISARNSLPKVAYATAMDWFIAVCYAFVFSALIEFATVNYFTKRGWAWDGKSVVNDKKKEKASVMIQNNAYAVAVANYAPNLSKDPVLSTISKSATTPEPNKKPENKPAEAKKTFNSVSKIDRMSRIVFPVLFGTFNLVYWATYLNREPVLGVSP
For each record, write down the corresponding pKi.
Just so you know, pKi here is -log10 of the concentration in molar units; reply with that number alone.

The compound identified as Cc1csc(-c2cc(-c3ccncc3)c3n(c2=O)CCCc2ccncc2-3)n1 registered its pKi at 9.22

Reported pKi of Cn1ncnc1COc1nn2c(-c3cc(F)ccc3F)nnc2cc1C(C)(C)C : 9.15

Item: CCOC(=O)c1ncn2c1[C@@H]1CCCN1C(=O)c1cc(OC)ccc1-2 | pKi: 7.57

In plain terms, Cc1cc(-c2nncc3c(C(C)(C)C)c(OCc4ncnn4C)nn23)no1 has a documented pKi of 9.10

====

target: Glutamate receptor ionotropic, kainate 1 (Homo sapiens); test: Agonist activity at GluK1 (unknown origin)
Sequence (P39086 whole entry): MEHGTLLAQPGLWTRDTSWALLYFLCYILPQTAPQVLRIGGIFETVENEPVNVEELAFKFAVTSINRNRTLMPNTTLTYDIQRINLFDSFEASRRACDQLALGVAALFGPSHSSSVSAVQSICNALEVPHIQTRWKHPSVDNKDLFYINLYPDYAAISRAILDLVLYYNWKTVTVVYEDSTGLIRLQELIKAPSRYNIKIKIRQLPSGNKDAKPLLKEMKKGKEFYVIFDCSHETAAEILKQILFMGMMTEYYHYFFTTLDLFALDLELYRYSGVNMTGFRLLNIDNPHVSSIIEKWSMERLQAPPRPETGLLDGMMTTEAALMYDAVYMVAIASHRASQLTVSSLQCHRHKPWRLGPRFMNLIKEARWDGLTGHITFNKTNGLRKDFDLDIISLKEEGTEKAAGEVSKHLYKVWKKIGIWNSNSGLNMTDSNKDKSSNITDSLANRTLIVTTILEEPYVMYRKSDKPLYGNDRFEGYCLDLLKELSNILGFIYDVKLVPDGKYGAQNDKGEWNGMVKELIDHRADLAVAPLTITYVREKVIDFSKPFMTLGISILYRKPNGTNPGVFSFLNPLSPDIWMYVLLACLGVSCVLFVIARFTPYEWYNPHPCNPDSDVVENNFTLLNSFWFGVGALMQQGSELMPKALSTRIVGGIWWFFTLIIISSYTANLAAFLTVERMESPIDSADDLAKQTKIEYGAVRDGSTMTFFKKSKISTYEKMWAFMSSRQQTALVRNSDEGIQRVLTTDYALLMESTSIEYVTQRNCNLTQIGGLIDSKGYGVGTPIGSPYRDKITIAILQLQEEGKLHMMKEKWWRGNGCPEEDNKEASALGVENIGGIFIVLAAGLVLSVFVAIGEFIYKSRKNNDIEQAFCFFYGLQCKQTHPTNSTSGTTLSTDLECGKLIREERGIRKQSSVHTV
metric.name: EC50 (nM)
Reply numerically in nM, unit not repeated.

CC(C)(C)c1s[nH]c(=O)c1C[C@H](N)C(=O)O has a reported EC50 of 100

====

biological target: Gamma-aminobutyric acid receptor subunit alpha-5 (Homo sapiens); assay: Positive allosteric modulation of GABAA alpha5 (unknown origin)
Sequence (P31644 whole entry): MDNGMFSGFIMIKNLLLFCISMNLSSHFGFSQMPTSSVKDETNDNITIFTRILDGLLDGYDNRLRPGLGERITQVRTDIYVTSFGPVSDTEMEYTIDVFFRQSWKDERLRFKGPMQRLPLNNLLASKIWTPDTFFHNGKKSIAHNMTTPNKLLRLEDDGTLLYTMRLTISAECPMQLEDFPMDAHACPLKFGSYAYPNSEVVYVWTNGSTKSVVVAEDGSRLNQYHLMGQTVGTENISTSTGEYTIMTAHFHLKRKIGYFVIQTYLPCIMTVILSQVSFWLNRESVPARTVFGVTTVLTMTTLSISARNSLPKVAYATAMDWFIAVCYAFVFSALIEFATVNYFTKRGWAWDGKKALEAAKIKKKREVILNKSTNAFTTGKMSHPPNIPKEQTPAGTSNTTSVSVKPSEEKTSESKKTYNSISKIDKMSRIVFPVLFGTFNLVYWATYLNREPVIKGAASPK
For each of the compounds below, state its pKi.
As a rule, pKi stands for the negative log10 of the concentration, concentration in M.

Per the record, CCOC(=O)c1ncn2c1[C@@H]1CCCN1C(=O)c1cc(OC)ccc1-2 has pKi of 9.35

# compound Cc1cc(-c2nncc3c(C(C)(C)C)c(OCc4ncnn4C)nn23)no1 ; its pKi = 8.85

# pKi of Cn1ncnc1COc1nn2c(-c3cc(F)ccc3F)nnc2cc1C(C)(C)C = 8.64

====

biological target: Sodium channel protein type 9 subunit alpha (Homo sapiens); assay: Inhibition of voltage-gated Na channel 1.7 (unknown origin)
pIC50: −log10 of the molar value.
metric.name: pIC50

get_value(item= NC(=O)C(c1ccccc1)(c1ccc(F)cc1)c1ccc(F)cc1 , readout=pIC50) returns < 6.00

====

biological target: Sodium channel protein type 4 subunit alpha (Homo sapiens); test: Inhibition of voltage-gated Na channel 1.4 (unknown origin)
Sequence (P35499 whole entry): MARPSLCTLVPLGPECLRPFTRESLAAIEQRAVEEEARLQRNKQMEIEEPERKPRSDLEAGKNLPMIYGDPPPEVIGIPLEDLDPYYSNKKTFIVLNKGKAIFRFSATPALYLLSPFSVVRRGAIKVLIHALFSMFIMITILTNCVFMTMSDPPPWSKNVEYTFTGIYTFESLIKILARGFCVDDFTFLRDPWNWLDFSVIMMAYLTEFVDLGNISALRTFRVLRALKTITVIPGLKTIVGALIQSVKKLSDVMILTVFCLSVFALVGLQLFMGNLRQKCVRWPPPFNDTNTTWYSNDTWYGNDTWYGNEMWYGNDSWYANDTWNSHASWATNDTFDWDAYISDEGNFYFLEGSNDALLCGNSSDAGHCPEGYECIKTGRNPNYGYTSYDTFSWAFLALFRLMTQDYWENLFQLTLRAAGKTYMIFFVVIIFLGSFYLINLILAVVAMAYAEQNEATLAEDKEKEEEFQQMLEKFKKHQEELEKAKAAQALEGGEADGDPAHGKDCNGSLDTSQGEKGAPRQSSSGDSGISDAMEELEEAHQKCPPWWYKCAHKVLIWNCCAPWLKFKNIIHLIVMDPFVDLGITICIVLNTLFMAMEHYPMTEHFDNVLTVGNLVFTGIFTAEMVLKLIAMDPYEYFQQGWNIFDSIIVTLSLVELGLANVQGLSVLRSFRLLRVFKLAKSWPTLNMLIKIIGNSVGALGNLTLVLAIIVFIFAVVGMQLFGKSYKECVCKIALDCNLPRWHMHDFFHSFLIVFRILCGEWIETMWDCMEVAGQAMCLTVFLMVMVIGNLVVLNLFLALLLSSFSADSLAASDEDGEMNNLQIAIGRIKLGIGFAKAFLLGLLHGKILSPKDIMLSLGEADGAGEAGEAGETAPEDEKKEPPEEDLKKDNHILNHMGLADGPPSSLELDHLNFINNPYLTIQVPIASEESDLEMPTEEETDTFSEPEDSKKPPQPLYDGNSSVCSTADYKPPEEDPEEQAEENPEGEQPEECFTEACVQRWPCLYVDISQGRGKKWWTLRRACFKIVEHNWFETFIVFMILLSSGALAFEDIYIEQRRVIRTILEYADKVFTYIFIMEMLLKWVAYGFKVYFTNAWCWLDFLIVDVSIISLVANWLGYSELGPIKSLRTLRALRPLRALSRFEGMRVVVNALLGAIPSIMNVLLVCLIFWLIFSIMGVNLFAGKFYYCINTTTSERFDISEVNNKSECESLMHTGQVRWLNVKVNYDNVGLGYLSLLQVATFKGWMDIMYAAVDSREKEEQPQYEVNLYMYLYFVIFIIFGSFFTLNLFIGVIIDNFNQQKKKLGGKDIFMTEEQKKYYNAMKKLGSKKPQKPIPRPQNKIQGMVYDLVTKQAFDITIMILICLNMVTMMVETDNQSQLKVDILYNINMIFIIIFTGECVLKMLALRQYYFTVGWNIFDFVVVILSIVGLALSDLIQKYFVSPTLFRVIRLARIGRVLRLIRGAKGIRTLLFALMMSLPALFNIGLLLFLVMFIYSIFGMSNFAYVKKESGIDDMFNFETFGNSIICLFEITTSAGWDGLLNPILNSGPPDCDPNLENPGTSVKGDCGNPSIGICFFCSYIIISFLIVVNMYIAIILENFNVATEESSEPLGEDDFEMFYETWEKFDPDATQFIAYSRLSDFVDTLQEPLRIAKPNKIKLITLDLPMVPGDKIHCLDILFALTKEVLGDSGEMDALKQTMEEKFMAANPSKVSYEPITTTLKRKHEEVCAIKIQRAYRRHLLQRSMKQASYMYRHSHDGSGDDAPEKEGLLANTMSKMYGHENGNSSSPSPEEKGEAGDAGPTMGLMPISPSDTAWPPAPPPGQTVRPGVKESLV
pIC50: −log10 of the molar value.
metric.name: pIC50

So the reported pIC50 for NC(=O)C(c1ccccc1)(c1ccc(F)cc1)c1ccc(F)cc1 , on Sodium channel protein type 4 subunit alpha (Homo sapiens), turned out to be < 6.00

====

Molecular target: Gamma-aminobutyric acid receptor subunit alpha-1 (Homo sapiens, UniProt P14867)
Sequence (P14867 whole entry): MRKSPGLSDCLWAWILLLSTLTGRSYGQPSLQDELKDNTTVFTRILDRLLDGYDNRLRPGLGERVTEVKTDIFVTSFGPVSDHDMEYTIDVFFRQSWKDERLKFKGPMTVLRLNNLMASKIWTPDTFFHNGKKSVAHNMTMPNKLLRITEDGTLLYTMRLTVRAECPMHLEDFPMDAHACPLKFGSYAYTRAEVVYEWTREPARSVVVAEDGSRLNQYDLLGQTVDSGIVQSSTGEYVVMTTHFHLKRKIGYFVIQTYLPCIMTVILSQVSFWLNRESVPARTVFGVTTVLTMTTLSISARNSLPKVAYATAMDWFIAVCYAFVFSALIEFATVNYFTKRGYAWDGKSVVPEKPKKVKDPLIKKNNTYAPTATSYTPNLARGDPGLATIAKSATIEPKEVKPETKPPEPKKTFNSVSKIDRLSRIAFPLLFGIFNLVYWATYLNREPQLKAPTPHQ
Experiment: Positive allosteric modulation of GABAA alpha1 (unknown origin)
metric.name: Ki (nM)
Write it as a number; the unit nM goes unstated.

Lab note: measured Ki of Cc1csc(-c2cc(-c3ccncc3)c3n(c2=O)CCCc2ccncc2-3)n1 was 1.3

The recorded Ki for CCOC(=O)c1ncn2c1[C@@H]1CCCN1C(=O)c1cc(OC)ccc1-2 is 49

// Ki value for Cc1cc(-c2nncc3c(C(C)(C)C)c(OCc4ncnn4C)nn23)no1 : 0.8
